System: K562 CRISPRi cells
ASSAY: Constant region variant library pooled growth screen, K562
Assay type: cell-based, human
CONDITION SUMMARY: sgRNA constant region variants; activity relative to the un-modified constant region cr995
Property: Mean relative activity; scope: individual molecules
No unit in the answer, please; the number alone is enough.

# MOLECULE, READOUT KIND, REPORTED VALUE
data = [
    ("cr525 (nucleic acid, listed as DNA, chemistry not fully specified) guide: GTTTAAGAGCTAAGCTGGAAACAGCATAGCAAGTTTAAATAAGGCTAGTCCGTTATCACCTTGAAAAAGGGGCACGGAGTCCGTGCT", "Mean relative activity", 0.9205),
    ("cr264 (nucleic acid, listed as DNA, chemistry not fully specified) guide: GTTTAAGAGCTAAGCTGGAAACAGCATAGCAAGTTTAAATAAGGCTAGTCCGTTATCAACTTGAAAATGTGGCACCGAGTCGGTGCT", "Mean relative activity", 0.9513),
]

Exam item: Would you mind telling me what Mean relative activity value was observed for cr718 (nucleic acid, listed as DNA, chemistry not fully specified) guide: GTTTAAGAGCTAAGCTGGAAACAGCATAGCAAGTTTAAATAAGGCTAGTCCGTTATCATCTTGAAAAAGAGGCCCCGAGTCGGGGCT ?
Marked response: 0.9447

Exam item: Would you mind telling me what Mean relative activity value was observed for cr630 (nucleic acid, listed as DNA, chemistry not fully specified) guide: GTTTAAGAGCTAAGCTGGAAACAGCATAGCAAGTTTAAATAAGGCTAGTCCGTTGCCAACTTGAAAAAGTGGCACCGACTCGGTGCT ?
Marked response: 0.9325

Exam item: Would you mind telling me what Mean relative activity value was observed for cr256 (nucleic acid, listed as DNA, chemistry not fully specified) guide: GTTTAAGAGCTAAGCTGGAAACAGCATAACAAGTTTAAATAAGGCTAGTCCGTTATCAACTTGAAAAAGTGGCACCGAGTCGGTGCT ?
Marked response: 0.9023

Exam item: Would you mind telling me what Mean relative activity value was observed for cr863 (nucleic acid, listed as DNA, chemistry not fully specified) guide: GTTTAAGAGCTAAGCTGGAAACCGCATAGCAAGTTTAAATAAGGCTAGTCCGTTATCAACTTGAAAAAGTGGCACCGAGTCGGTGCT ?
Marked response: 0.9031

Exam item: Would you mind telling me what Mean relative activity value was observed for cr719 (nucleic acid, listed as DNA, chemistry not fully specified) guide: GTTTAAGAGCTAAGCTGGAAACAGCATAGCAAGTTTAAATAAGGCTAGTCCGTTATCAACTTGAAAAAGTGGCACCGAGTCGGTGAT ?
Marked response: 0.9381

Exam item: Would you mind telling me what Mean relative activity value was observed for cr578 (nucleic acid, listed as DNA, chemistry not fully specified) guide: GTTTAAGAGCTAAGCTGGAAACAGCATAGCGAGTTTAAATAAGGCTAGTCCGTTATCAACTTGATAAAGTGGCACCGAGTCGGTGCT ?
Marked response: 0.9852

Exam item: Would you mind telling me what Mean relative activity value was observed for cr769 (nucleic acid, listed as DNA, chemistry not fully specified) guide: GTTTAAGAGCTAAGCTGGAAACAGCATAGCAGGTTTAAATAAGGCTAGTCCGGAATCAACTTGAAAAAGTGGCACCGAGTCGGTGCT ?
Marked response: 0.9268

Exam item: Would you mind telling me what Mean relative activity value was observed for cr231 (nucleic acid, listed as DNA, chemistry not fully specified) guide: GTTTAAGAGCTAAGCTGGAAACAGCATAGCAAGTTTAAATAAGGCTAGACCGTTATCAACTTGAGAAAGTGGCACCGAGTCGGTGCT ?
Marked response: 0.9485

Exam item: Would you mind telling me what Mean relative activity value was observed for cr181 (nucleic acid, listed as DNA, chemistry not fully specified) guide: GTTTAAGAGCTAAGCTGGAAACAGCATAGCAAGTTTAAATAAGGTTAATCCGTTATCAATTTGAAAAAATGGCGCCGAGTCGGCGCT ?
Marked response: 0.9506

Where do these numbers come from? They come from patent US20220259593A1.
